target: Factor X, P00742
Sequence (P00742 whole entry, looked up): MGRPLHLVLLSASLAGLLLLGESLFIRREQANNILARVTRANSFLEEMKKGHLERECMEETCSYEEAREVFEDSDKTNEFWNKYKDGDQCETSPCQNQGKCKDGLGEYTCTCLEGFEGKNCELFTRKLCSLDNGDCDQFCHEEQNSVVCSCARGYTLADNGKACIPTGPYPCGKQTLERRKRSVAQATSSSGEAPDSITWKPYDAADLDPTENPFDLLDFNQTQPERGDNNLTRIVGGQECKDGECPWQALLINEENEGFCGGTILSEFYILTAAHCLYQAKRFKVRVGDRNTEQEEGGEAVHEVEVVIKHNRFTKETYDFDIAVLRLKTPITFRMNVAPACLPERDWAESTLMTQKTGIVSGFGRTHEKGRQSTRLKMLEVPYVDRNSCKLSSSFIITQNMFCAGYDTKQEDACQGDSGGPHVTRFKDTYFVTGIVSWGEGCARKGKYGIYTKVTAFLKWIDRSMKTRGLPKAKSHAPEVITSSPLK
Measured Property: kcat/KM (M⁻¹ s⁻¹)
Form entry: value (M⁻¹ s⁻¹) — number only.

Given the protein FIXa D104N/K106S/K247N/N249S/N260S (protein) chain 1: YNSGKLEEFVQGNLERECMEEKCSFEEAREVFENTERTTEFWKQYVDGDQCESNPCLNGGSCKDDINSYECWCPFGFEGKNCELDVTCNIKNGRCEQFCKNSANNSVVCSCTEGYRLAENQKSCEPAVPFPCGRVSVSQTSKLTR chain 2: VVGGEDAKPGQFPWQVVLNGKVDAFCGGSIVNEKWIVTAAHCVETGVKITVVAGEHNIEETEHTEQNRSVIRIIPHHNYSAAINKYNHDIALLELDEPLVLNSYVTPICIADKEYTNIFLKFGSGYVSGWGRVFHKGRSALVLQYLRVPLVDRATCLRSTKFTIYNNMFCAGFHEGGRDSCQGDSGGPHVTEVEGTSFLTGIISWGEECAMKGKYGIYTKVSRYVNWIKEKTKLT , what is its reported kcat/KM?
9.8e+06
